The values you see were collected from ChEMBL document CHEMBL4808180.

# Test Description: Tmax in Sprague-Dawley rat at 200 mg/kg, po
# Format: ADME, organism-based
# Test Conditions: in vivo
Reported Property: Tmax (min)
Numeric only. Scale: min

Consider "CCC(C)(C)C(=O)O" . Its measured Tmax is 25

* * *

# Test Description: Oral bioavailability in Sprague-Dawley rat at 200 mg/kg
# Assay type: ADME, organism-based
# Test Conditions: in vivo
Reported Property: bioavailability (%)
Write the number in % without appending the unit.

bioavailability measured on "CCC(C)(C)C(=O)O" = 126

* * *

# Test Description: Tmax in CD1 mouse at 30 mg/kg, po
# Format: ADME, organism-based
# Test Conditions: in vivo
Reported Property: Tmax (min)
Use min as the unit, but write only the number.

GET /value?item= "CCC(C)(C)C(=O)O" &field=Tmax returns 26.3

* * *

# Test Description: Solubility in pH 7-buffered water
# Format: physicochemical
Reported Property: solubility

Reported solubility ( CCC(C)(C)C(=O)O [DIMEBUTIC ACID] ) = > 50 mg/mL

* * *

# Target Of Assay: OAT1 (Homo sapiens)
# Sequence (Q4U2R8 whole entry): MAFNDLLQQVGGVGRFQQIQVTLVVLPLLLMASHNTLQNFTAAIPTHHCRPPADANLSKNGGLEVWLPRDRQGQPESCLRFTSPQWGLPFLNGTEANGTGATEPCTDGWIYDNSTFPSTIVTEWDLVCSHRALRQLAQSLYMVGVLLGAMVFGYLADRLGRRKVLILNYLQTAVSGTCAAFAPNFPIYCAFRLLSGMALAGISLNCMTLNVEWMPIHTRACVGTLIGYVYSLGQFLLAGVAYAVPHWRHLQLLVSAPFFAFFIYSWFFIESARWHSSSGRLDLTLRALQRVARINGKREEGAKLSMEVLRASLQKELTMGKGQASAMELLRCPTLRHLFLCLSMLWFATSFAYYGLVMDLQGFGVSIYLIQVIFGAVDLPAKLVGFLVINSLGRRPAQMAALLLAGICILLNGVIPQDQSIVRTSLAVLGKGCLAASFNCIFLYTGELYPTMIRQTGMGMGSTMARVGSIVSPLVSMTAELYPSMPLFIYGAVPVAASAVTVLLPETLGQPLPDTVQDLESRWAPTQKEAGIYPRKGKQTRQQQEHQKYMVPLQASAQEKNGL
# Test Description: Inhibition of human OAT1 assessed as reduction in OAT1-mediated tenofovir transport at 14900 uM relative to control
# Test Conditions: not told, probe tenofovir
Reported Property: inhibition at 14900 µM
Please answer in the form of a number followed by its unit of measurement.

Summary for this molecule, CCC(C)(C)C(=O)O [DIMEBUTIC ACID] : inhibition at 14900 µM is 83.2%

* * *

# Test Description: Tmax in CD1 mouse at 30 mg/kg, iv
# Type: ADME, organism-based
# Test Conditions: in vivo
Reported Property: Tmax (min)
Please give a number only; it is taken to be in min.

Documented Tmax of "CCC(C)(C)C(=O)O" : 7.5

* * *

# Test Description: Cmax in Sprague-Dawley rat at 10 mg/kg, po
# Assay type: ADME, organism-based
# Design: route oral, dose 10 mg/kg
# Test Conditions: in vivo
Reported Property: Cmax (ng/mL)
Give the value, in units of ng/mL, as a plain number.

Value of measured Cmax for the entry "CCC(C)(C)C(=O)O" : 4270

* * *

Field: pEC50. Provide a value for each of the compounds that follow.
# Test Description: Reduction of propionyl-CoA in human hepatocytes derived from propionic acidemia patient pretreated for 30 mins followed by 13C-isoleucine addition and measured after 1 hr by MS/MS analysis
# Type: functional, cell-based
# Test Conditions: hepatocyte
As a rule, pEC50 stands for the negative log10 of the concentration, concentration in M.

Notebook: "COCC(C)(C)C(=O)O" , pEC50 read as 5.57

Lab note: measured pEC50 of "CCC(C)(C)C(=O)OC" was 5.76

Summary for this compound, "CCC(C)(C)C(=O)O" : pEC50 is 6.03

Measured pEC50 of "O=C(O)C1CC1" : 4.63

For this compound ( "O=C(O)C1CCCC1" ), measured pEC50 is 4.91

Looking up "CC(C)(C)CC(=O)O" , I see its pEC50 listed as 6.04

* * *

# Test Description: Oral bioavailability in Sprague-Dawley rat at 50 mg/kg
# Type: ADME, organism-based
# Test Conditions: in vivo
Reported Property: bioavailability (%)
Form entry: value (%) — number only.

For "CCC(C)(C)C(=O)O" the compound record lists bioavailability as 68.3

* * *

# Test Description: Tmax in Sprague-Dawley rat at 10 mg/kg, po
# Assay type: ADME, organism-based
# Test Conditions: in vivo
Reported Property: Tmax
Write the figure, then the unit, nothing else.

For record "CCC(C)(C)C(=O)O" the listed Tmax is 15 min

* * *

# Target Of Assay: OAT3 (Homo sapiens)
# Sequence (Q8TCC7 whole entry): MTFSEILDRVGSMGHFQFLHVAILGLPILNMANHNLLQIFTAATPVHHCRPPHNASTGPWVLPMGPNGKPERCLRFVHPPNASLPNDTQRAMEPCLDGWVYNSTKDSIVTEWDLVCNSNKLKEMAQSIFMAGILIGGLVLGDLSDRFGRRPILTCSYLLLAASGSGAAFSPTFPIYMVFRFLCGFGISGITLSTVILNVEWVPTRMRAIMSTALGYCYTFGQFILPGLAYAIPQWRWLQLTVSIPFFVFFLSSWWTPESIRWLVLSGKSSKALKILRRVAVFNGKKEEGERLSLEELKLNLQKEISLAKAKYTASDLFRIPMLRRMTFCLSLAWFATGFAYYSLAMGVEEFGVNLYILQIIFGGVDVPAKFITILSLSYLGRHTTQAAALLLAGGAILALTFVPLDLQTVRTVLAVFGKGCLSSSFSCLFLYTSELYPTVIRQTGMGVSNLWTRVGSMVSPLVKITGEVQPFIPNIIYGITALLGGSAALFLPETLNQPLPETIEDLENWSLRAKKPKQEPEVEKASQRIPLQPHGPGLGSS
# Test Description: Inhibition of human OAT3 assessed as reduction in OAT3-mediated tenofovir transport at 14900 uM relative to control
# Test Conditions: not told, probe tenofovir
Reported Property: inhibition at 14900 µM (%)
Dear colleague, please return just the value in %, with no unit written.

Form: item "CCC(C)(C)C(=O)O" ; test system OAT3 (Homo sapiens); inhibition at 14900 µM: 90.9

* * *

# Test Description: Clearance in Sprague-Dawley rat at 10 mg/kg, iv
# Format: ADME, organism-based
# Test Conditions: in vivo
Reported Property: clearance (mL/min/kg)
Field: numeric (mL/min/kg). Do not append units.

For "CCC(C)(C)C(=O)O" the compound record lists clearance as 17.3

* * *

# Test Description: Reduction of propionyl-CoA in human hepatocytes derived from propionic acidemia patient pretreated for 30 mins followed by 13C-isoleucine addition and measured after 1 hr by MS/MS analysis
# Assay type: functional, cell-based
# Test Conditions: hepatocyte
Reported Property: EC50 (µM)
Respond with the bare value in µM.

EC50 recorded for this molecule, CCCC(C)C(=O)O (stereo not given) , is 12.6

The molecule CCCC(CC)C(=O)O (stereo not given) showed EC50 equal to 1.23

Input "O=C(O)CCCC(F)(F)F" . Output EC50: 9.91

Noted for "CCC(CC)C(=O)O" : its EC50 reads 33.7
